pIC50: −log10 of the molar value.
Compiled pIC50 measurements on PIK3CD (Human) taken from the literature.

Worked examples, 6 molecules total:
- molecule: "COc1cncc(-c2cccc3cc([C@H](C)NC(=O)c4c(N)nn5cccnc45)n(-c4ccccc4)c(=O)c23)c1"
  val: "6.00 to 7.00"
- molecule: "Cc1cccc2cc(Cn3nc(-c4cc(O)cc(F)c4)c4c(N)ncnc43)n(-c3ccccc3C(C)C)c(=O)c12"
  val: "> 7.00"
- molecule: "Cn1nc(C2CCN(C(=O)CC(=O)O)CC2)nc1-c1cnc(N)c(-c2nnc(C(C)(C)C)o2)n1"
  val: 7.92
- molecule: "Cc1cccc2cc(Cn3nc(C(F)F)c4c(N)ncnc43)n(-c3ccccc3)c(=O)c12"
  val: "> 7.00"
- molecule: "COCCN1Cc2c(C#N)c(Cl)cc(C(C)n3nc(C)c4c(N)ncnc43)c2OC(C)C1 (single isomer, unassigned)"
  val: "≥ 7.00"
- molecule: "Cn1ncc2c(-c3ccc4ncc(C(=O)N5CCOCC5)n4c3)cncc21"
  val: "< 5.00"

Query: Sample Nc1nc2cc(-c3ccc4nccc(CCN5CCOCC5)c4c3)ccc2o1 — what was its pIC50?
Result: > 5.00

---

pIC50: −log10 of the molar value.
Here we gather pIC50 data for PIK3CD (Human) reported by several publications.

Solved entries (count: 7):
- compound: "N#Cc1cc2cnc(Nc3ccc4c(c3)CCNC4)nc2n(C2COCC2O)c1=O (centres unmarked)"
  pIC50: 5.11
- compound: "C[C@H](Nc1ncnc2cccnc12)c1cc2cccc(Cl)c2c(C(=O)N2CCOCC2)n1"
  pIC50: "> 7.00"
- compound: "Nc1nc2cc(-c3ccc4nccc(-c5cccnc5)c4c3)ccc2o1"
  pIC50: "> 7.00"
- compound: "C[C@H](Nc1ccnn2ccnc12)c1cc2ccccc2c(CCN2CCOCC2)n1"
  pIC50: "> 7.00"
- compound: "CC(C)n1c(Cn2nc(-c3cccc(O)c3)c3c(N)ncnc32)cc2cccc(Cl)c2c1=O"
  pIC50: "> 7.00"
- compound: "Cc1cccc2cc(Cn3nc(I)c4c(N)ncnc43)n(C3CC3)c(=O)c12"
  pIC50: "> 7.00"
- compound: "FC[C@@H]1CCCN1[C@H]1CC[C@H](CNc2cc(-n3c(C(F)F)nc4ccccc43)nc(N3CCOCC3)n2)CC1"
  pIC50: 8.82

Query: Give its pIC50 value. Item: Cc1ccccc1-n1c(Cn2nc(-c3ccc(F)c(O)c3)c3c(N)ncnc32)cc2cccc(C)c2c1=O
Result: > 7.00

---

pIC50: −log10 of the molar value.
Listing of pIC50 toward PIK3CD (Human), each taken from a published source.

- substanceSmiles: "CC(C)(C)N1CCN(C(=O)c2cnc3ccc(-c4ccc5oc(N)nc5c4)cn23)CC1"
  testedTarget: "PIK3CD (Human)"
  property: "pIC50"
  val: "> 5.00"
- substanceSmiles: "CCN(CC)c1ncc2c(n1)-c1sc(NC(=O)N3CCC[C@@]3(CO)C(N)=O)nc1CC2"
  testedTarget: "PIK3CD (Human)"
  property: "pIC50"
  val: 6.70
- substanceSmiles: "COC[C@@H]1CCN(C(=O)Nc2nc3c(s2)-c2nc(C(C)(C)C(F)(F)F)sc2CC3)[C@@H]1C(N)=O"
  testedTarget: "PIK3CD (Human)"
  property: "pIC50"
  val: 6.95
- substanceSmiles: "CN(C)CC(=O)N1CCC(Nc2ncnc3ccc(-c4ccc5oc(N)nc5c4)cc23)CC1"
  testedTarget: "PIK3CD (Human)"
  property: "pIC50"
  val: "> 6.00"
- substanceSmiles: "Cc1cccc2cc([C@H](C)Nc3ncnc4[nH]cnc34)n(C(C)C)c(=O)c12"
  testedTarget: "PIK3CD (Human)"
  property: "pIC50"
  val: "> 7.00"

Query: Fill in the blank: the reported pIC50 of CS(=O)(=O)CCN1CCN(c2cnc3ccc(-c4ccc5oc(N)nc5c4)cc3n2)CC1 is ____.
Result: > 5.00

Query: Queued: COc1ccc(-c2nn(Cc3cc4cccc(C)c4c(=O)n3-c3ccccc3C)c3ncnc(N)c23)cc1
Result: > 6.00

Query: Try this compound too: C[C@H](Nc1ccnc2ccnn12)c1cc2cccc(Cl)c2c(C(=O)N2CCOCC2)n1
Result: > 7.00

---

Literature IC50 values, system: PIK3CD (Human) (UniProt O00329).
property: IC50 (nM)

Record excerpt, results attached:
- compound: "Cc1sc2c(-c3cnc(Cl)c(NS(C)(=O)=O)c3)nc(N3CCOCC3)nc2c1CN1CCC(C(C)(C)O)CC1"
  IC50, nM: 5
- compound: "C[C@H](Nc1ccc2c(c1F)OCCn1cc(N3C(=O)OC[C@H]3C(F)F)nc1-2)C(N)=O"
  IC50, nM: 306
- compound: "COCC(C)N[C@H]1CC[C@H](CNc2nc(N3CCOC[C@@H]3C)cc(-n3c(C(F)F)nc4ccccc43)n2)CC1 (stereo partly shown)"
  IC50, nM: 8.9
- compound: "CC(C)(C)OC(=O)NC(C)(C)C(=O)N[C@H]1CC[C@H](Nc2nc(N3CCOCC3)cc(-n3c(C(F)F)nc4ccccc43)n2)CC1"
  IC50, nM: 22

(1) C[C@@H](C(N)=O)N(C)c1ccc2c(c1)OCCn1cc(N3C(=O)OC[C@H]3C(F)F)nc1-2
(2) CN(C)C1CCN(c2ccc(Nc3ncc4cc(C#N)c(=O)n(C5CCCC5)c4n3)cc2F)CC1
Query: Could you tell me which of these two has the smaller IC50 figure? First: 1 Second: 2 Choose, then provide that item's label.
Result: 1

---

pIC50: −log10 of the molar value.
Literature compilation of pIC50 measurements on PIK3CD (Human) (UniProt O00329).

- molecule: "Cc1nn(C(C)c2cc(Cl)c(F)c3c2O[C@@H](C)CN(C2CN(CC(N)=O)C2)C3)c2ncnc(N)c12 (single isomer, unassigned)"
  val: "≥ 7.00"
- molecule: "O=C(c1cnc2ccc(-c3cncc4c3cnn4CCO)cn12)N1CCOCC1"
  val: "< 5.00"
- molecule: "Cc1oc2ccccc2c1-c1nc(N2CCOCC2)nc2c(CN3CCN(C(=O)C(C)C)CC3)csc12"
  val: 6.25

Query: May I ask what pIC50 has been recorded for CC(=O)Nc1nc2cc(-c3nn(Cc4cc5cccc(C)c5c(=O)n4-c4ccccc4C)c4ncnc(N)c34)ccc2s1 ?
Result: > 6.00

---

Please find below IC50 measurements for PIK3CD (Human), combined from several publications.
property: IC50 (nM)

- molecule: "C[C@H]1COCCN1c1cc(-n2c(C(F)F)nc3ccccc32)nc(NC[C@H]2CCCN(C(=O)OC(C)(C)C)C2)n1"
  unitsText: "nM"
  IC50: 19

(A) COC[C@@H]1CCN(C(=O)Nc2nc(C)c(-c3ccnc(C(C)(C)C(F)(F)F)c3)s2)[C@@H]1C(N)=O
(B) CN(C)CC1Cc2ccc(Nc3ncc4cc(C#N)c(=O)n(C5CCCC5)c4n3)cc2C(=O)N1 (stereo not drawn)
Query: Pick one: A or B . Which has the bigger IC50 number? Response format: the label of the selected entry.
Result: A

(A) CS(=O)(=O)N1CCN(Cc2csc3c(-c4c(F)ccc5[nH]ccc45)nc(N4CCOCC4)nc23)CC1
(B) C[C@H]1OC(=O)N(c2cc(-c3cnc(N)nc3C(F)(F)F)nc(N3CCOCC3)n2)[C@H]1CO
(C) CC[C@H]1C[C@@]2(C1)C(=O)N(C)c1cnc3cc(F)c(-c4cnc(OCCNC(C)C)c(NS(C)(=O)=O)c4)cc3c12
(D) COc1ncc(-c2nc(N3CCOCC3)nc3c(CN4CCC(N5CCC[C@H]5C(F)(F)F)CC4)c(C)sc23)cc1NS(C)(=O)=O
Query: Ascending sort, IC50. Answer by listing the labels in the order asked for.
Result: D, B, C, A

---

Literature compilation of IC50 measurements on PIK3CD (Human).
property: IC50 (nM)

- substanceSmiles: "C[C@@H]1COCCN1c1cc(-n2c(C(F)F)nc3ccccc32)nc(NCC2CCN(C3CCOCC3)CC2)n1"
  property: "IC50"
  val: 20

(I) Nc1ncnc2c1c(-c1cc(O)c(F)c(F)c1)cn2C1Cc2ccccc2C1
(II) c1cc(-c2nc(N3CCOCC3)nc3c(CN4CCN(C5COC5)CC4)csc23)c2cc[nH]c2c1
Query: Thinking about recorded IC50 values, which is higher, I or II ? Pick one and reply with its label.
Result: I

---

Compiled from multiple publications: IC50 readings for PIK3CD (Human) (UniProt O00329).

Worked examples follow.
- substanceSmiles: "Cc1cc2c(=O)n(-c3ccccc3C)c(Cn3nc(Br)c4c(N)ncnc43)nc2s1"
  val: "< 10000 nM"
- substanceSmiles: "Cc1cccc2cc(Cn3nc(-c4ccc5nc(N)[nH]c5c4)c4c(N)ncnc43)n(-c3ccccc3)c(=O)c12"
  val: "< 100 nM"
- substanceSmiles: "Cc1cccc2cc(Cn3nc(-c4cccc(O)c4)c4c(N)ncnc43)n(C3CCCC3)c(=O)c12"
  val: "< 100 nM"
- substanceSmiles: "C[C@H](Nc1ncnc2[nH]cnc12)c1cc2cccc(Cl)c2c(SCCN2CCCC2)n1"
  val: "< 100 nM"

Query: Recorded IC50 for [2H]C1([2H])OC([2H])([2H])C([2H])([2H])N(c2nc(-c3cnc(N)nc3C(F)(F)F)cc(N3C(=O)O[C@H](C)[C@@H]3CO)n2)C1([2H])[2H] , please?
Result: 21 nM

Query: Now the same for C[C@H](NC(=O)c1nc(-c2cnn(C)c2)cnc1N)c1cc2cccc(Cl)c2c(=O)n1-c1ccccc1
Result: > 10000 nM

Query: Same read-out for C[C@H](NC(=O)c1nccnc1N)c1cc2cccc(Cl)c2c(CCN2CCOCC2)n1 ?
Result: < 1000 nM
